- System: gel-filtered platelets
- assay info: In vitro inhibition of thrombin-induced gel-filtered platelet aggregation
- Format: cell-based
- settings: agonist thrombin; gel-filtered human platelets; read-out: Platelet Aggregation** IC50 Thr*
observation type: IC50 (µM)
Dear colleague, please return just the value in µM, with no unit written.

Exam item: Quick one: IC50 for Cc1oc([C@H](Cc2ccc(F)cc2)N(C)C)nc1C(=O)N[C@@H](CC1CCCCC1)C(=O)N[C@@H](CCCNC(=N)N)C(=O)NCc1ccccc1 [Compound 10] ?
Marked response: 11
